assay: protein stability index of a GFP-peptide fusion (GPS, HEK-293T) (PSI 1-6); higher = more stable; details: treatment: DMSO; c terminus: a fixed tail appended;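 note: 24-mer peptide tiles fused after GFP, lentivirally expressed, FACS-sorted into six equal bins by GFP/DsRed ratio, decoded by Illumina sequencing, PSI is the read-weighted mean bin number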
Answer not fulfilled if protein stability index is under 4, and fulfilled if it is 4 or more.

Residues: EISAYRKLLQGEEERLKLSPSPSS [LMNB1]
Class name: not fulfilled

Residues: SHRPNMELCRDAAQFRLLSEVEEL [TEKT4]
Class name: not fulfilled

[ask] Say whether ALRSHLKSFSMANGLNARMMHGGS [RAB40B] shows protein stability index of 4 or more.
[reply] not fulfilled

[ask] Say whether GSRAGASSFSDPFFVVETLCIIWF [KCNA3] shows protein stability index of 4 or more.
[reply] not fulfilled

[ask] Kindly determine if protein stability index recorded for LGYAASLEASVQDDAGTSGGPSSP [C2CD2L] is above or exactly 4.
[reply] fulfilled

[ask] Please indicate if the recorded protein stability index for AGTAGVGETGSGDQAGGEGKHITV [MYOZ1] meets or exceeds 4.
[reply] fulfilled

[ask] Textbook exercise: given the entry SLLQKVSPVAHKHLSRQKIDPLLY [TBC1D10A] , state whether its protein stability index is greater than or equal to 4.
[reply] not fulfilled

[ask] Kindly determine if protein stability index recorded for KSHVYMAWNIPMSNPGVDFGDVSE [GALNT9] is above or exactly 4.
[reply] not fulfilled

[ask] Exam item: decide whether the reported protein stability index for KAKRRNQEMQQKLVELSAENEKLH [CEBPD] is at least 4.
[reply] fulfilled

[ask] Confirm if protein stability index reported for the sequence NEFLEAFRLVEKSCPEGDASECPQ [PPEF2] is 4 or above.
[reply] fulfilled

[ask] Exam item: decide whether the reported protein stability index for SNVRWDHESVCKYYLCGFCPAELF [LUC7L3] is at least 4.
[reply] not fulfilled

[ask] Textbook exercise: given the entry SDNSWVLAGSESLPVETLGPASRM [PBXIP1] , state whether its protein stability index is greater than or equal to 4.
[reply] not fulfilled

[ask] Decide: protein stability index of GKAVVSHSKGHKSSRQEKRPLCAQ [ELOA2] >= 4?
[reply] fulfilled

[ask] Test whether the sequence LIGDTLLVAPVLEPGKQERDVYLP [MYORG] records protein stability index of 4 or higher.
[reply] not fulfilled

[ask] Has LPERRGTCADRDNLTRRFSDLGFE [CASP6] a recorded protein stability index greater than or equal to 4?
[reply] not fulfilled

###

assay: protein stability index of a GFP-peptide fusion (GPS, HEK-293T) (PSI 1-6); higher = more stable; conditions: treatment: MLN4924 1 uM, 8 h; c terminus: a fixed tail appended
Readout kind: protein stability index

Use these answered entries as a reference point.
Residues: TEALILQLFSQIGPCKNCKMIMDT [TIA1]
protein stability index: 2.53

Residues: KGAILTTMLATRNFSAAKSLLNKK [CAMK2B]
protein stability index: 3.04

I need protein stability index for every entry listed below, if you could help.
1. KNSTMVNSEDIFLLLCLKVDNHFN [TRIM43]
2. RLCRLAGASSPAAYDEALAELHAH [ZSWIM9]
3. STAHASAQSLAGGSRRTKEEELQC [TPD52L1]
4. RRFLLCLYLVGFLDLFGVSMVVPL [MFSD9]
5. QTDHIKGIRQITSDDFCTFQMVLE [GFOD1]
6. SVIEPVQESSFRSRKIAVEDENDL [MIA2]
7. LGGIGFSSCIVCLFVGLYYNVIIG [SLC6A17]

[reply]
2.84
3.33
5.12
3.4
2.8
5.21
3.92
